Reference for the values: patent US12673935B2

Target: CDK6/human cyclin D3 (Homo sapiens)
Sequence (Q00534 whole entry): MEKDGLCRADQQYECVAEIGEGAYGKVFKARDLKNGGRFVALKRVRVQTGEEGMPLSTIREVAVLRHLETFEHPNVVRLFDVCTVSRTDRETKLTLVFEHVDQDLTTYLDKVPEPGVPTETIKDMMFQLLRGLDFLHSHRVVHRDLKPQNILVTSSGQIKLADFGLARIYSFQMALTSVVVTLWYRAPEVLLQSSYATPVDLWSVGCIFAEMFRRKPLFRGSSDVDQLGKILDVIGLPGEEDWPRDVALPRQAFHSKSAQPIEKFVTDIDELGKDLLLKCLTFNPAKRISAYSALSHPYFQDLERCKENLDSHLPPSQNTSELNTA
Sequence (P30281 whole entry partner): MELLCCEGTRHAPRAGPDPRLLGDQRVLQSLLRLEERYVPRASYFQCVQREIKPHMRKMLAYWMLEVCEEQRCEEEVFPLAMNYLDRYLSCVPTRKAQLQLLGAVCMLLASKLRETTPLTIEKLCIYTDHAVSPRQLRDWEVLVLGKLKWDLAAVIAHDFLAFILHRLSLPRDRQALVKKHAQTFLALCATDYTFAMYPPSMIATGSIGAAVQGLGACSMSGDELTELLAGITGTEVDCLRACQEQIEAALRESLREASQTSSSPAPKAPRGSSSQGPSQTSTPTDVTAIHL
Test: Determination of activity of CDK6 kinase (Caliper mobility shift)
Details: 300 μM ATP, 2 nM enzyme, 25° C. 3 hours; read-out: CDK6/CycD3 IC50
Experimental: The activity of CDK6 kinase in vitro was tested by the following method: • 2 nM CDK6/human cyclin D3 (Carna, No. 04-107) • Final buffer: • 100 mM 4-hydroxyethyl piperazine ethanesulfonic acid, pH 7.5; • 0.1% bovine serum albumin; • 0.01% Triton X-100; • 1 mM dithiothreitol; • 5 mM magnesium chloride; • 10 μM sodium orthovanadate; • 10 μM sodium P-glycerophosphate; • 300 μM ATP; • 1% DMSO (from the compound to be tested); • Substrate peptide: Dyrktide; […]
pIC50: −log10 of the molar value.
ASSAY METRIC: pIC50

{"COMPOUND": "Cc1nc2c(F)cc(-c3nc(Nc4ccc(N5CCN(CC(C)O)CC5)cn4)ncc3F)cc2n1C(C)C (centres unmarked) [Compound 1987]", "READING": 8.23}
{"COMPOUND": "COCCN1CCN(c2ccc(Nc3ncc(F)c(-c4cc(F)c5nc(C)n(C(C)C)c5c4)n3)nc2)CC1 [Compound 1988]", "READING": 8.96}
{"COMPOUND": "CCN1CCN(Cc2ccc(Nc3ncc(F)c(-c4cc(F)c5nc(CO)n(C(C)C)c5c4)n3)nc2)CC1 [Compound 1994]", "READING": 8.06}
{"COMPOUND": "CC(C)n1c(CF)nc2c(F)cc(-c3nc(Nc4ccc(CN5CCC(N(C)C)CC5)cn4)ncc3F)cc21 [Compound 1975]", "READING": 8.17}
{"COMPOUND": "Cc1nc2c(F)cc(-c3nc(Nc4ccc(CN5CCC(N(C)CCO)CC5)cn4)ncc3F)cc2n1C(C)C [Compound 1964]", "READING": 8.07}
{"COMPOUND": "Cc1nc2c(F)cc(-c3nc(Nc4ccc(CN5CCN(CCO)CC5)cn4)ncc3F)cc2n1C(C)C [Compound 1979]", "READING": 8.39}
{"COMPOUND": "CCN1CCN(c2ccc(Nc3ncc(F)c(-c4cc(F)c5nc(CF)n(C(C)C)c5c4)n3)nc2)CC1 [Compound 1985]", "READING": 8.52}
{"COMPOUND": "CC(C)n1c(CF)nc2c(F)cc(-c3nc(Nc4ccc(N5CCC(N(C)C)CC5)cn4)ncc3F)cc21 [Compound 1984]", "READING": 8.41}
{"COMPOUND": "Cc1nc2c(F)cc(-c3nc(Nc4ccc(N5CCC(N(C)CCO)CC5)cn4)ncc3F)cc2n1C(C)C [Compound 1963]", "READING": 9.00}
{"COMPOUND": "CNC1CCN(c2ccc(Nc3ncc(F)c(-c4cc(F)c5nc(C)n(C(C)C)c5c4)n3)nc2)CC1 [Compound 1967]", "READING": 8.91}
{"COMPOUND": "Cc1nc2c(F)cc(-c3nc(Nc4ccc(N5CCN(CCO)CC5)cn4)ncc3F)cc2n1C(C)C [Compound 1986]", "READING": 8.74}
{"COMPOUND": "CCN1CCN(Cc2ccc(Nc3ncc(F)c(-c4cc(F)c5nc(CF)n(C(C)C)c5c4)n3)nc2)CC1 [Compound 1978]", "READING": 8.01}
{"COMPOUND": "CC(C)n1c(CF)nc2c(F)cc(-c3nc(Nc4ccc(N5CCC(N(C)CCO)CC5)cn4)ncc3F)cc21 [Compound 1990]", "READING": 8.32}
{"COMPOUND": "CC(C)n1c(CF)nc2c(F)cc(-c3nc(Nc4ccc(CN5CCC(N(C)CCO)CC5)cn4)ncc3F)cc21 [Compound 1995]", "READING": 8.00}
